Biological target: TMEM63B; note: test concentration or dose not given here
Experiment: reporter assay of Huesken 2005
Conditions: siRNA
Oligonucleotides are given in HELM: sugar(base)linkage, 5' to 3'; d 2'-deoxyribose, r ribose, m 2'-O-methylribose, p phosphate. ss, as = sense and antisense strand
Known normalised inhibition (eCFP-eYFP dual reporter) of a selection of substances
QUANTITY: normalised inhibition (eCFP-eYFP dual reporter)

1. RNA1{r(G)p.r(C)p.r(G)p.r(U)p.r(C)p.r(U)p.r(U)p.r(C)p.r(A)p.r(C)p.r(G)p.r(G)p.r(U)p.r(G)p.r(G)p.r(U)p.r(C)p.r(A)p.r(U)p.d(T)p.d(T)}|RNA2{r(A)p.r(U)p.r(G)p.r(A)p.r(C)p.r(C)p.r(A)p.r(C)p.r(C)p.r(G)p.r(U)p.r(G)p.r(A)p.r(A)p.r(G)p.r(A)p.r(C)p.r(G)p.r(C)p.d(A)p.d(C)}$$$RNA1{StrandType:ss}|RNA2{StrandType:as}$	75.9%
2. RNA1{r(G)p.r(A)p.r(G)p.r(G)p.r(C)p.r(G)p.r(C)p.r(A)p.r(A)p.r(C)p.r(G)p.r(U)p.r(G)p.r(A)p.r(A)p.r(G)p.r(C)p.r(G)p.r(G)p.d(T)p.d(T)}|RNA2{r(C)p.r(C)p.r(G)p.r(C)p.r(U)p.r(U)p.r(C)p.r(A)p.r(C)p.r(G)p.r(U)p.r(U)p.r(G)p.r(C)p.r(G)p.r(C)p.r(C)p.r(U)p.r(C)p.d(T)p.d(C)}$$$RNA1{StrandType:ss}|RNA2{StrandType:as}$	59.5%
3. RNA1{r(A)p.r(C)p.r(G)p.r(C)p.r(U)p.r(C)p.r(U)p.r(G)p.r(G)p.r(G)p.r(G)p.r(A)p.r(G)p.r(A)p.r(A)p.r(C)p.r(A)p.r(G)p.r(G)p.d(T)p.d(T)}|RNA2{r(C)p.r(C)p.r(U)p.r(G)p.r(U)p.r(U)p.r(C)p.r(U)p.r(C)p.r(C)p.r(C)p.r(C)p.r(A)p.r(G)p.r(A)p.r(G)p.r(C)p.r(G)p.r(U)p.d(G)p.d(T)}$$$RNA1{StrandType:ss}|RNA2{StrandType:as}$	48.3%
